Values compiled from paper PMC3040172.

tgt: DNA topoisomerase II alpha, full length (human, UniProt P11388 1-1531)
Sequence (P11388 whole entry): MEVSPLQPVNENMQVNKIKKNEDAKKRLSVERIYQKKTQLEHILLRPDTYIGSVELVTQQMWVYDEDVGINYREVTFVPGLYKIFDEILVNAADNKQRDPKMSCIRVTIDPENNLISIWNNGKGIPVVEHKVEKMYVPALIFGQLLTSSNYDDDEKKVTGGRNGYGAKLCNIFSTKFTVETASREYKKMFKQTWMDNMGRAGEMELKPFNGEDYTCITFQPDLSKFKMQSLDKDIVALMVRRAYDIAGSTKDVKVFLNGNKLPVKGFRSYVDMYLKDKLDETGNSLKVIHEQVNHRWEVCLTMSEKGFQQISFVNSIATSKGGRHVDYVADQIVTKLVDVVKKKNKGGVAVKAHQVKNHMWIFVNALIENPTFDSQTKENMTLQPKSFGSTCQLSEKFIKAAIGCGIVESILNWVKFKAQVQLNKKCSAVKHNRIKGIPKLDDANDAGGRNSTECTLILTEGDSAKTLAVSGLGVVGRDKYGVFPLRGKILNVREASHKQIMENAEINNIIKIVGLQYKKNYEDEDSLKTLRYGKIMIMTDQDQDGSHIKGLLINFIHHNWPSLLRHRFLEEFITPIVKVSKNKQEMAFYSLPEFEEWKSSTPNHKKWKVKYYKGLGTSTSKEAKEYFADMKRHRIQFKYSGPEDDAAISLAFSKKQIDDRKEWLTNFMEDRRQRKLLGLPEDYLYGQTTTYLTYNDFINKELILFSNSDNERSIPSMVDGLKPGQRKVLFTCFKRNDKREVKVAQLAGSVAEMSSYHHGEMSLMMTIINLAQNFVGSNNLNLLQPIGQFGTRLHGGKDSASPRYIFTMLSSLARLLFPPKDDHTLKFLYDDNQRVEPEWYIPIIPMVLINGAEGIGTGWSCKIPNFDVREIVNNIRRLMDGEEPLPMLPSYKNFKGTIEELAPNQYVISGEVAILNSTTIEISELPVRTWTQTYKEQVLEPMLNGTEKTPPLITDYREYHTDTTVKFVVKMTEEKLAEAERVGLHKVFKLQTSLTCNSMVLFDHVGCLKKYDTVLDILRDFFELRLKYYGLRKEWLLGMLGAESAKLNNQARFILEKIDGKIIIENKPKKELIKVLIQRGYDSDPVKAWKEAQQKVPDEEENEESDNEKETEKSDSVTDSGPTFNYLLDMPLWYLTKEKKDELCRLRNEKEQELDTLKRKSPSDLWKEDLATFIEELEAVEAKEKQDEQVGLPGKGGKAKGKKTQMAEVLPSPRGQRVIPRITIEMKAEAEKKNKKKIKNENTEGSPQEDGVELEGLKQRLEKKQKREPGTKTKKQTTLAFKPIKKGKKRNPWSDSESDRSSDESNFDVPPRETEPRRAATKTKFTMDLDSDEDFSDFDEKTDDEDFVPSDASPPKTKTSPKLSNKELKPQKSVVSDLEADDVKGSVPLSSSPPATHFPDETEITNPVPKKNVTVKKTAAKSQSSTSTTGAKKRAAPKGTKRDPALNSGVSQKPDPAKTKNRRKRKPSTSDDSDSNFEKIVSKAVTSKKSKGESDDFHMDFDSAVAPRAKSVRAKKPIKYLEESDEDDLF
assayProcedure: fluorescence anisotropy; 10 mM CaCl2; 50 mM Tris pH 8, 5% glycerol, 50 mM KCl, 1% Triton X-100, 100 µg/ml acetylated BSA, 20°C; HEX oligo printed as 1 µM; 10 mM MgCl2 or CaCl2 where described
studyConditions: protein: recombinant; chain copies: 2; blunt; as printed S2 is not the exact complement of S1: 2 mismatches at S1 positions 34-35 (possible typo)
attributeMeasured: Kd (nM)
Use nM as the unit, but write only the number.

For 40 bp oligo AB (dsDNA) DNA 1: CGCAATCTGACAATGCGCTCATCGTCATCCTCGCGACGCG DNA 2: CGCGTGCCGAGGATGACGATGAGCGCATTGTCAGATTGCG , what is its reported Kd?
178
